Assay: Extended room temperature storage of treprostinil monohydrate lot D-1007-089 (18-month stability summary: water content, assay/impurity profile)
Type: physicochemical
Details: 3 Months, Container 2 (covered with Kimwipe), room temperature
Method: 2. UT Stability Summary (18-month) for monohydrate lot # D-1007-089 A 3.4-kg sample of treprostinil diethanolamine salt was dissolved in 36 L of sterile water, 60 L of ethyl acetate and 3.6 L of 3 M HCl were added and the mixture stirred. The layers were separated and the aqueous layer was extracted thrice with 20-L portions of ethyl acetate. […]
recorded metric: 751W93

// lookup 751W93 for CCCCC[C@H](O)CC[C@@H]1[C@H]2Cc3cccc(OCC(=O)O)c3C[C@H]2C[C@H]1O [TREPROSTINIL Lot# D-1007-089, treprostinil monohydrate]
0.04%
